Molecular target: Mitogen-activated protein kinase 1 (Homo sapiens)
Sequence (P28482 whole entry): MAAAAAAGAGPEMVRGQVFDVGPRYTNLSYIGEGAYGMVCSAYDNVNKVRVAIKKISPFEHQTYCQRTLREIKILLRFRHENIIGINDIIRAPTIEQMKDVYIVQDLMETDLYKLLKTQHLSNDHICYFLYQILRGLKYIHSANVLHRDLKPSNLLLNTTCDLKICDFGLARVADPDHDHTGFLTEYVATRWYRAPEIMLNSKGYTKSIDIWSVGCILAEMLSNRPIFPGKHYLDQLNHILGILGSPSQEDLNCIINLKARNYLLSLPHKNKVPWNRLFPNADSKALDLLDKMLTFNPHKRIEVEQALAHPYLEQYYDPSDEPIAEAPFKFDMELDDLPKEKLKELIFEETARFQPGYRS
Test: Inhibition of human recombinant ERK2 expressed in E.coli after 15 mins
pIC50: −log10 of the molar value.
Listed molecules paired with reported pIC50

{"structureSmiles": "COc1cc(O)c2c(c1)CCCCCC(=O)/C=C/C[C@H](C)OC2=O", "pIC50": "< 4.00"}
{"structureSmiles": "COc1cc(O)c2c(c1)/C=C/CCCC(=O)/C=C/C[C@H](C)OC2=O", "pIC50": "< 4.00"}

Exercise: Entry COc1cc(O)c2c(c1)/C=C/C[C@@H](O)[C@H](O)C(=O)/C=C\C[C@H](C)OC2=O has what pIC50?
Key: 5.89

Where these numbers come from: ChEMBL document CHEMBL1667852
